assaySystem: UniProt Q9UBC3
pIC50: −log10 of the molar value.
propertyName: pIC50

compound: Nc1ncnc2c1ncn2[C@@H]1O[C@H](CS[C@@H]2CCNC2)[C@@H](O)[C@H]1O
operator: =
reportedValue: 4.92
--
compound: Nc1ncnc2c1ncn2[C@@H]1O[C@H](CSCC[C@H](N)C(=O)O)[C@@H](O)[C@H]1O [S-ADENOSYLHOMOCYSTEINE]
operator: =
reportedValue: 6.70
--
compound: Nc1ncnc2c1ncn2[C@@H]1O[C@H](CS[C@@H]2CN[C@H](C(=O)O)C2)[C@@H](O)[C@H]1O
operator: =
reportedValue: 6.52
--
compound: NCCCSC[C@H]1O[C@@H](n2cnc3c(N)ncnc32)[C@H](O)[C@@H]1O
operator: =
reportedValue: 4.77
--
compound: Nc1nc(Cl)nc2c1ncn2C1O[C@H](CS[C@H]2CCNC2)[C@@H](O)[C@H]1O (single isomer, unassigned)
operator: <
reportedValue: 4.35
